Reported ED50 by item:
- System: passive cutaneous anaphylaxis by homocytotropic antibody (HTA)
- Method Description: Passive Cutaneous Anaphylaxis (PCA) test in rat (Test Example 1)
- Type: in vivo, rat (Wistar)
- Conditions Used: 0.5 h, 72 hour PCA, intravenous just before antigen, sacrificed 30 minutes after antigen challenge, read-out: ID50 (fifty % inhibitory dose for the leaked amount of the pigment)
Parameter Measured: ED50 (mg/kg)

smiles_notation=O=C(O)COc1cccc2cc(-c3nnn[nH]3)c(=O)oc12 target_system="passive cutaneous anaphylaxis by homocytotropic antibody (HTA)" value_observed=0.5
smiles_notation=O=C(O)CCCCCOc1cccc2oc(=O)c(-c3nnn[nH]3)cc12 target_system="passive cutaneous anaphylaxis by homocytotropic antibody (HTA)" value_observed=0.2
smiles_notation=O=C(O)CCCCCOc1ccc2oc(=O)c(-c3nnn[nH]3)cc2c1 target_system="passive cutaneous anaphylaxis by homocytotropic antibody (HTA)" value_observed=0.16
smiles_notation=O=C(O)CCCCCOc1cccc2cc(-c3nnn[nH]3)c(=O)oc12 target_system="passive cutaneous anaphylaxis by homocytotropic antibody (HTA)" value_observed=0.16
smiles_notation=O=C(O)CCCOc1ccc2oc(=O)c(-c3nnn[nH]3)cc2c1 target_system="passive cutaneous anaphylaxis by homocytotropic antibody (HTA)" value_observed=0.1
smiles_notation=O=C(O)CCCOc1cccc2cc(-c3nnn[nH]3)c(=O)oc12 target_system="passive cutaneous anaphylaxis by homocytotropic antibody (HTA)" value_observed=0.1
smiles_notation=O=C(O)CCCCCOc1ccc2cc(-c3nnn[nH]3)c(=O)oc2c1 target_system="passive cutaneous anaphylaxis by homocytotropic antibody (HTA)" value_observed=0.2
